All values here come from patent US10434083B2.

- protocol summary: Firocoxib pharmacokinetics in sows following IM administration (Example 2)
- Type: in vivo, swine
- condition: female, Yorkshire×Landrace, pig, plasma; sows, 0.5-2.0 mg/kg IM; read-out: plasma elimination half-life (T1/2λz), range over dose groups
measured quantity: half-life

1. CC1(C)OC(=O)C(OCC2CC2)=C1c1ccc(S(C)(=O)=O)cc1 [firocoxib] = 26.7 to 31.1 h

---

- protocol summary: Firocoxib pharmacokinetics in sows following IM administration (Example 2)
- Assay type: in vivo, swine
- condition: female, Yorkshire×Landrace, pig, plasma, im, 1.5 mg/kg, sows, 1.5 mg/kg IM, mean; read-out: AUC0-24h
- Procedure: Protocols involved intramuscular injection of Firocoxib to lactating sows at either 0.5, 1.0, 1.5 or 2 mg/kg, and analysis in sows and select piglets at 21 days post treatment. […] A sample size of 4 sows was selected to describe the pharmacokinetics of firocoxib. […] In cases where the calculated dose volume exceeded 20-mL, the remaining volume was administered via IM injection in the left lateral neck muscle. […]
measured quantity: AUC(0-t) (ng·h/mL)

1. CC1(C)OC(=O)C(OCC2CC2)=C1c1ccc(S(C)(=O)=O)cc1 [firocoxib] = 4840
